system: MIAPaCa-2 (pancreas); experiment: MTT in vitro cytotoxic activity assay, MIAPaCa-2; type: cell-based; details: Homo sapiens, MIA PaCa-2, 96 h incubation, read-out: Cytotoxicity activity, MIAPaCa-2 (pancreas)
valueType: pIC50
Please note pIC50 is a logarithmic value: minus log10 of concentration in mol/L. Answer with that number alone.

## Task Which measured pIC50 belongs to `O=C1Nc2c(nc(Nc3cccc(Cl)c3)c3cc(C(=O)O)ccc23)C1=O` , tested on MIAPaCa-2 (pancreas)?
## Result 5.96

* * *

system: A375 (melanoma); assay: MTT in vitro cytotoxic activity assay, A375; type: cell-based; conditions: Homo sapiens, A-375, 96 h incubation, read-out: Cytotoxicity activity, A375 (melanoma)
valueType: pIC50
Please note pIC50 is a logarithmic value: minus log10 of concentration in mol/L. Answer with that number alone.

## Task Reported pIC50 for O=C1Nc2c(nc(Nc3cccc(Cl)c3)c3cc(C(=O)O)ccc23)C1=O [Compound 1] : what is it?
## Result 5.51

These measurements were taken from patent US12258345B1.
